In this section we review reported fraction unbound at 4 h, 2 µM values for a set of molecules.
test: in vitro; conditions: cynomolgus monkey, plasma
Assay Readout: fraction unbound at 4 h, 2 µM

>  <Molecule>
CCC(=O)NC1CCOc2c(-c3ccc4c(ccc(=O)n4C)c3)cncc21 (single isomer, unassigned)

>  <Measured Number>
0.336

$$$$
>  <Molecule>
CCC(=O)NC1CCCc2c(-c3cc4c(s3)N(C)C(=O)CC4)cncc21 (single isomer, unassigned)

>  <Measured Number>
0.219

$$$$
>  <Molecule>
CCC(=O)NC1CCCc2c(-c3cc4ccc(=O)n(C)c4s3)cncc21 (single isomer, unassigned)

>  <Measured Number>
0.31

$$$$

----------
test system: MDR1-MDCKII cells; assay: Permeability test (MDR1-MDCKII monolayer, bidirectional transport); assay type: in vitro ADME; details: 2 µM, pH 7.40, 2.5 hours, A to B
Reported Apparent permeability coefficient (Papp (AB), 10^-6 cm/s) values for the following compounds.
Assay Readout: Apparent permeability coefficient (Papp (AB), 10^-6 cm/s)

>  <Compound>
CCC(=O)NC1CCCc2c(-c3cc4c(cc3F)N(C)C(=O)CO4)cncc21 (single isomer, unassigned)

>  <Result>
22.6 10^-6 cm/s

$$$$
>  <Compound>
CCC(=O)NC1CCOc2c(-c3cc4ccc(=O)n(C)c4s3)cncc21 (single isomer, unassigned)

>  <Result>
16.7 10^-6 cm/s

$$$$
>  <Compound>
CCC(=O)NC1CCOc2c(-c3cc4c(s3)N(C)C(=O)CC4)cncc21 (single isomer, unassigned)

>  <Result>
18.0 10^-6 cm/s

$$$$
>  <Compound>
CCC(=O)NC1CCCc2c(-c3cc(F)c4c(c3)OCC(=O)N4C)cncc21 (single isomer, unassigned)

>  <Result>
20.0 10^-6 cm/s

$$$$
>  <Compound>
CCC(=O)NC1CCCc2c(-c3ccc4c(c3)OCC(=O)N4C)cncc21 (single isomer, unassigned)

>  <Result>
24.3 10^-6 cm/s

$$$$
>  <Compound>
CCC(=NOC)NC1CCCc2c(-c3ccc4c(c3)CCC(=O)N4C)cncc21 (single isomer, unassigned)

>  <Result>
23.1 10^-6 cm/s

$$$$
>  <Compound>
CCC(=O)N[C@@H]1CCCc2c(-c3ccc4c(ccc(=O)n4C)c3)cncc21 (single isomer, unassigned)

>  <Result>
17.2 10^-6 cm/s

$$$$

----------
target: human CYP11B1 (Homo sapiens, UniProt P15538); assay: In vitro activity assay of monoclonal cells overexpressing human CYP11B1; settings: G402 cells overexpressing human CYP11B1; 1 µM 11-deoxycortisol, 16 hours; cortisol by LC-MS/MS
Sequence (P15538 25-503): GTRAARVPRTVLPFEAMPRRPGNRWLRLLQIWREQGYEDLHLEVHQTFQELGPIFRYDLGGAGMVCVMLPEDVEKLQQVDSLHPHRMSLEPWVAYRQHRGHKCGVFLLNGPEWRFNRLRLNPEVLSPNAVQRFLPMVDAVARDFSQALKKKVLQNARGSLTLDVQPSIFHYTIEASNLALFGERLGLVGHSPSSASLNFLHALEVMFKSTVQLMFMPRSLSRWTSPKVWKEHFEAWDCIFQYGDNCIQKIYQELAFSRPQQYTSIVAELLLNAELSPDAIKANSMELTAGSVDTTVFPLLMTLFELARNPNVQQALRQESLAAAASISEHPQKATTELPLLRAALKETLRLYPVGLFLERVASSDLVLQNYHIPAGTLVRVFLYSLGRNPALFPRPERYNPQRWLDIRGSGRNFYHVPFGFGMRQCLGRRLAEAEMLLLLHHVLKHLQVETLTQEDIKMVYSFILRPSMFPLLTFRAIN
IC50 vs 2 µM: less than gives true; not less than gives false.

>  <Molecule>
Cc1noc(C)c1C(=O)NC1CCCc2c(-c3cc4ccc(=O)n(C)c4cc3F)cncc21 (single isomer, unassigned) [Compound 020]

>  <Answer Label>
true

$$$$
>  <Molecule>
CCC(=O)NC1CCOc2c(-c3ccc4c(ccc(=O)n4C)c3)cncc21 (single isomer, unassigned) [Compound 044]

>  <Answer Label>
false

$$$$
>  <Molecule>
CCC(=O)NC1CCc2c(-c3ccc4c(ccc(=O)n4C)c3)cncc21 (single isomer, unassigned) [Compound 048]

>  <Answer Label>
false

$$$$
>  <Molecule>
CCC(=O)NC1CCOc2c(-c3cc4c(s3)N(C)C(=O)CC4)cncc21 (single isomer, unassigned) [Compound 046]

>  <Answer Label>
true

$$$$
>  <Molecule>
CCC(=O)N[C@@H]1CCCc2c(-c3ccc4c(ccc(=O)n4C)c3)cncc21 (single isomer, unassigned) [Compound 001]

>  <Answer Label>
false

$$$$
>  <Molecule>
CCC(=O)NC1CCCc2c(-c3cc4ccc(=O)n(C)c4cc3F)cncc21 (single isomer, unassigned) [Compound 019]

>  <Answer Label>
true

$$$$
